Ref: ChEMBL document CHEMBL3751742

Reported values of zone of inhibition at 5000 µg/mL for individual entries
Tested on: Bacillus subtilis
test details: Antibacterial activity against gram-positive Bacillus subtilis at 5 mg/ml after 24 hrs by well diffusion method
Assay type: functional
condition details: read-out: DIZ
The answer is to be given in mm; state only the numeric part.

Example cases with answers are listed next.
line notation | zone of inhibition at 5000 µg/mL, mm
Cn1c(=O)c2c(-c3c[nH]c4ccccc34)c[nH]c2n(C)c1=O | 20
Cn1c(=O)c2c(-c3ccco3)c[nH]c2n(C)c1=O | 20

Consider the record given below.
Recorded zone of inhibition at 5000 µg/mL for Cc1ccc(-c2c[nH]c3c2c(=O)n(C)c(=O)n3C)cc1 , please? 20

###

Test system: Bacillus subtilis
test details: Antibacterial activity against gram-positive Bacillus subtilis at 5 mg/ml after 24 hrs by well diffusion method
Type: functional
condition details: read-out: DIZ
test readout: zone of inhibition at 5000 µg/mL (mm)
The answer is to be given in mm; state only the numeric part.

Example cases with answers are listed next.
line notation | zone of inhibition at 5000 µg/mL [mm]
Cn1c(=O)c2c(-c3cccc4ccccc34)c[nH]c2n(C)c1=O | 18
Cn1c(=O)c2c(-c3cccs3)c[nH]c2n(C)c1=O | 20

Consider the record given below.
Recorded zone of inhibition at 5000 µg/mL for CN(C)c1ccc(-c2c[nH]c3c2c(=O)n(C)c(=O)n3C)cc1 , please? 15
